Item-by-item account of Relative Activity (ratio of variant IC50/WT IC50), chromogenic thrombin inhibition assay
- measured on: thrombin
- experimental details: cell-based or functional assay
Write it as a number; the unit ratio goes unstated.

Illustrative cases are given below, each with its answer.
{"binder": "hirudin mutein M 2 (I29R L30H) (other) VVYTDCTESGQNLCLCEGSVVCGQGNKCRHGSDGEKNQCVTGEGTPKPESHNDGDFEEIPEEYLQ", "recorded measurement": 1.2}
{"binder": "hirudin mutein M 62 (L30D) (other) VVYTDCTESGQNLCLCEGSVVCGQGNKCIDGSDGEKNQCVTGEGTPKPESHNDGDFEEIPEEYLQ", "recorded measurement": 2}
{"binder": "hirudin mutein M 53 (I29G) (other) VVYTDCTESGQNLCLCEGSVVCGQGNKCGLGSDGEKNQCVTGEGTPKPESHNDGDFEEIPEEYLQ", "recorded measurement": 1.8}
{"binder": "hirudin mutein M 65 (L30H) (other) VVYTDCTESGQNLCLCEGSVVCGQGNKCIHGSDGEKNQCVTGEGTPKPESHNDGDFEEIPEEYLQ", "recorded measurement": 1}
{"binder": "hirudin mutein M 34 (I29T L30Q) (other) VVYTDCTESGQNLCLCEGSVVCGQGNKCTQGSDGEKNQCVTGEGTPKPESHNDGDFEEIPEEYLQ", "recorded measurement": 2.4}

Tell me Relative Activity (ratio of variant IC50/WT IC50), chromogenic thrombin inhibition assay reported for hirudin mutein M 52 (I29E) (other) VVYTDCTESGQNLCLCEGSVVCGQGNKCELGSDGEKNQCVTGEGTPKPESHNDGDFEEIPEEYLQ
1

Provide measured Relative Activity (ratio of variant IC50/WT IC50), chromogenic thrombin inhibition assay value, entry: hirudin mutein M 19 (I29E L30K) (other) VVYTDCTESGQNLCLCEGSVVCGQGNKCEKGSDGEKNQCVTGEGTPKPESHNDGDFEEIPEEYLQ
1.1

Give the measured Relative Activity (ratio of variant IC50/WT IC50), chromogenic thrombin inhibition assay for hirudin mutein M 70 (L30R) (other) VVYTDCTESGQNLCLCEGSVVCGQGNKCIRGSDGEKNQCVTGEGTPKPESHNDGDFEEIPEEYLQ
1

Tell me measured Relative Activity (ratio of variant IC50/WT IC50), chromogenic thrombin inhibition assay for hirudin mutein M 40 (L15Q) (other) VVYTDCTESGQNLCQCEGSVVCGQGNKCILGSDGEKNQCVTGEGTPKPESHNDGDFEEIPEEYLQ please.
0.34

Answer with the recorded Relative Activity (ratio of variant IC50/WT IC50), chromogenic thrombin inhibition assay for the binder listed here: hirudin mutein M 16 (I29D L30A) (other) VVYTDCTESGQNLCLCEGSVVCGQGNKCDAGSDGEKNQCVTGEGTPKPESHNDGDFEEIPEEYLQ
1.6

Identify measured Relative Activity (ratio of variant IC50/WT IC50), chromogenic thrombin inhibition assay corresponding to hirudin mutein M 77 (P48T) (other) VVYTDCTESGQNLCLCEGSVVCGQGNKCILGSDGEKNQCVTGEGTPKTESHNDGDFEEIPEEYLQ
1

Write down Relative Activity (ratio of variant IC50/WT IC50), chromogenic thrombin inhibition assay measured for item hirudin mutein M 29 (I29S L30Q) (other) VVYTDCTESGQNLCLCEGSVVCGQGNKCSQGSDGEKNQCVTGEGTPKPESHNDGDFEEIPEEYLQ
2

Find the measured Relative Activity (ratio of variant IC50/WT IC50), chromogenic thrombin inhibition assay of hirudin mutein M 24 (I29R L30Q) (other) VVYTDCTESGQNLCLCEGSVVCGQGNKCRQGSDGEKNQCVTGEGTPKPESHNDGDFEEIPEEYLQ and report it.
1
